target: BMAL1 (Homo sapiens, UniProt O00327); set-up: PASB domain (residues 338–449); Protein thermal shift (PTS) fragment screen on recombinant human BMAL1(PASB), shift of melting temperature; details: dTmB; binder
Sequence (O00327 338-449): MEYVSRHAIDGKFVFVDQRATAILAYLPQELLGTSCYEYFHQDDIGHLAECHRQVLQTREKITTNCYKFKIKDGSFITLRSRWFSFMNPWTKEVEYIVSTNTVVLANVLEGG
In this section, each of the compounds is paired with its reported Bmal1(PASB) dTmB.
Property label: Bmal1(PASB) dTmB (°C)

                entry_smiles                      target_or_system    property_label  units_symbol  numeric_result
0   c1ccc2c3c([nH]c2c1)CCCC3  BMAL1 (Homo sapiens, UniProt O00327)  Bmal1(PASB) dTmB            °C           -0.19
1  NC(=O)C(c1ccccc1)c1ccccc1  BMAL1 (Homo sapiens, UniProt O00327)  Bmal1(PASB) dTmB            °C           -0.76
2           NC(=O)COc1ccccc1  BMAL1 (Homo sapiens, UniProt O00327)  Bmal1(PASB) dTmB            °C           -0.19
3          N=C(N)CSCc1ccccc1  BMAL1 (Homo sapiens, UniProt O00327)  Bmal1(PASB) dTmB            °C            0.25
4     NC(=O)c1ccc2[nH]ccc2c1  BMAL1 (Homo sapiens, UniProt O00327)  Bmal1(PASB) dTmB            °C           -0.81

---

biological target: BMAL1 (Homo sapiens); parameters: PASB domain (residues 338–449); Protein thermal shift (PTS) fragment screen on recombinant human BMAL1(PASB), shift of melting temperature; conditions: dTmB; binder
Label no (0) if Bmal1(PASB) dTmB falls below -0.6 °C; label yes (1) in every other case.

>>> df
                       entry_smiles  assigned_label
0      c1ccc(C(c2ccccc2)n2ccnc2)cc1          no (0)
1                    CCOc1ccc(N)cc1          no (0)
2           O=C(O)C1(c2ccccc2)CCCC1         yes (1)
3                       Cc1nccn1CCO         yes (1)
4  Cc1cc(=O)n(-c2ccc(C)c(C)c2)[nH]1         yes (1)

---

target: BMAL1 (Homo sapiens); set-up: PASB domain (residues 338–449); Protein thermal shift (PTS) fragment screen on recombinant human BMAL1(PASB), shift of melting temperature; conditions: dTmB; binder
Bmal1(PASB) dTmB reference
Property label: Bmal1(PASB) dTmB

>>> df
                                   molecule    property_label    result
0  Fc1cccnc1N1CCCC1 [Prestw-Frag-3150, Compound 24]  Bmal1(PASB) dTmB  -0.14 °C
1  CNC(=O)c1c(-c2ccccc2)noc1C [Prestw-Frag-3690, Compound 210]  Bmal1(PASB) dTmB  -0.42 °C
2  NC1CCN(Cc2ccccc2)CC1 [Prestw-Frag-2060, Compound 207]  Bmal1(PASB) dTmB  -0.05 °C
3  COc1ccc2c(c1)OCC2=O [Prestw-Frag-1362, Compound 212]  Bmal1(PASB) dTmB  -0.12 °C
4  CC1(c2ccccc2)NC(=O)NC1=O (centres unmarked) [Prestw-Frag-2652, Compound 273]  Bmal1(PASB) dTmB  -0.17 °C

Reference source: paper PMC12037410
